These entries and their values trace back to PubChem BioAssay AID296.

- Test system: MX-1 breast xenograft, nude mice, tumor weight T/C
- PROTOCOL TEXT: NCI In Vivo Anticancer Drug Screen. Data for tumor model Human Mammary Carcinoma MX-1 Xenograft (intrarenal inoculation) in NU/NU Swiss (nude) mice
- SETTINGS: endpoint: mean tumor weight change; dose: 12.0 mg/kg/injection; schedule: Q04DX003 (sc); vehicle: saline; higher = larger tumour
Records with an inconclusive call do not appear.
ASSAY READOUT: T/C

Record excerpt, results attached:
[[record]]
compound = "C[n+]1c(-c2cccc3ccccc23)c2cc(N)ccc2c2ccccc21"
measurement = "103 % of control"

[[record]]
compound = "Cc1nc(N)nc(N)c1-c1ccc(Cl)c(Cl)c1"
measurement = "87 % of control"

[[record]]
compound = "CCC1(O)CC2CN(CCc3c([nH]c4ccccc34)C(C(=O)OC)(c3cc4c(cc3OC)N(C)C3C(O)(C(=O)NCCSSCCNC(=O)C5(O)C(O)C6(CC)C=CCN7CCC8(c9cc(C%10(C(=O)OC)CC%11CN(CCc%12c%10[nH]c%10ccccc%12%10)CC(O)(CC)C%11)c(OC)cc9N(C)C58)C76)C(O)C5(CC)C=CCN6CCC43C65)C2)C1 (centres undefined)"
measurement = "1 % of control"


Query: Quick one: T/C of `N[C@@H](Cc1ccc(N(CCCl)CCCl)cc1)C(=O)O` ?
Response: -100 % of control

* * *

# maps each entry to its T/C
- Test system: MX-1 breast xenograft, nude mice, tumor weight T/C
- PROTOCOL TEXT: NCI In Vivo Anticancer Drug Screen. Data for tumor model Human Mammary Carcinoma MX-1 Xenograft (intrarenal inoculation) in NU/NU Swiss (nude) mice
- SETTINGS: endpoint: mean tumor weight change; dose: 18.0 mg/kg/injection; schedule: Q04DX003 (sc); vehicle: saline with Tween-80; higher = larger tumour
Records with an inconclusive call do not appear.

[[record]]
molecule = "C1CCC2C[N-]CCC2C1.C1CCC2C[N-]CCC2C1.C1CCC2C[N-]CCC2C1.C1CCC2C[N-]CCC2C1.[Cl][Rh][Cl] (stereo not given)"
measured_on = "MX-1 breast xenograft, nude mice, tumor weight T/C"
measurement = "107 % of control"


Query: Quick one: T/C of `C[CH2][Pb]([CH2]C)([CH2]C)[O]C(=O)COc1ccccc1` ?
Response: 79 % of control

Query: Quick one: T/C of CC(=O)OC1COC(NC(=O)N(CCCl)N=O)C(OC(C)=O)C1OC(C)=O (stereo not given) ?
Response: 110 % of control

Query: Quick one: T/C of `CN(C)CCN1C(=O)c2cccc3cc([N+](=O)[O-])cc(c23)C1=O` ?
Response: 43 % of control

Query: Quick one: T/C of `O=C1c2cccc3cc([N+](=O)[O-])cc(c23)C(=O)N1CCN1CCCC1` ?
Response: 120 % of control

* * *

- Test system: MX-1 breast xenograft, nude mice, tumor weight T/C
- PROTOCOL TEXT: NCI In Vivo Anticancer Drug Screen. Data for tumor model Human Mammary Carcinoma MX-1 Xenograft (intrarenal inoculation) in NU/NU Swiss (nude) mice
- SETTINGS: endpoint: mean tumor weight change; dose: 800.0 mg/kg/injection; schedule: Q01DX010 (sc); vehicle: Klucel (hydroxypropylcellulose) (HPC); higher = larger tumour
Inconclusive results are not listed.
ASSAY READOUT: T/C

Record excerpt, results attached:
[[record]]
compound = "OC(CBr)C(O)C(O)C(O)CBr (centres undefined)"
measurement = "-100 % of control"

[[record]]
compound = "CC(=O)[O][Pb]([O]C(C)=O)([c]1ccccc1)[c]1ccccc1"
measurement = "51 % of control"

[[record]]
compound = "ClCCCCCCCCCCc1ccccc1"
measurement = "93 % of control"

[[record]]
compound = "C=C(NC(=O)C(=C)NC(=O)c1csc(C2=NC3c4csc(n4)C4NC(=O)c5csc(n5)C(C(C)(O)C(C)O)NC(=O)C5CSC(=N5)/C(=C/C)NC(=O)C(C(C)O)NC(=O)c5csc(n5)C3(CC2)NC(=O)C(C)NC(=O)C(=C)NC(=O)C(C)NC(=O)C(C(C)CC)NC2C=Cc3c(C(C)O)cc(nc3C2O)C(=O)OC4C)n1)C(N)=O (centres undefined)"
measurement = "98 % of control"


Query: Quick one: T/C of CC(=O)OCC1OC(OC2=C(CC=C(C)C)C(=O)c3ccccc3C2=O)C(OC(C)=O)C(OC(C)=O)C1OC(C)=O (centres undefined) ?
Response: 52 % of control

Query: Quick one: T/C of `Cc1ccc(S(=O)(=O)N/N=C/C(=O)O)cc1` ?
Response: 71 % of control

Query: Quick one: T/C of `CCCC(=O)OCc1cc(=O)n(C)c2c3c4c(cc12)c(C)cc(=O)n4CO3` ?
Response: 72 % of control

Query: Quick one: T/C of CC1CN=C(c2ccc(NC(=O)c3ccc(C(=O)Nc4ccc(C5=NCC(C)N5)cc4)cc3)cc2)N1 (centres undefined) ?
Response: 77 % of control

Query: Quick one: T/C of `O=c1[nH]c(=O)n([C@H]2CCCO2)cc1F` ?
Response: 123 % of control
